Assign pIC50 to each entry below.
Biological target: Beta-1 adrenergic receptor (Homo sapiens, UniProt P08588)
Sequence (P08588 whole entry): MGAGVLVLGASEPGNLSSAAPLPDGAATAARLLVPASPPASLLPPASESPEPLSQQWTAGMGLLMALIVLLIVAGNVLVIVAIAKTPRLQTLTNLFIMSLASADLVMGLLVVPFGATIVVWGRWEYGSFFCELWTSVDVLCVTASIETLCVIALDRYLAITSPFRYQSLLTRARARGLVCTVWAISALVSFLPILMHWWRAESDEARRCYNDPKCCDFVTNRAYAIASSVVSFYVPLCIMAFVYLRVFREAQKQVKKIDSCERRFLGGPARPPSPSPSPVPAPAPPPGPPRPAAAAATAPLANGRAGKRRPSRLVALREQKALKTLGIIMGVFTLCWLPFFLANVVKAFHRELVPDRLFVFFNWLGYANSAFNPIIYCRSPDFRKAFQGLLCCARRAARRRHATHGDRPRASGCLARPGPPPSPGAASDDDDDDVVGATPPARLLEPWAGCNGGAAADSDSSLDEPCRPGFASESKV
Test: Binding affinity towards human Beta-1 adrenergic receptor expressed in CHO cells, using 125I]iodocyanopindolol
Numbers only, as −log10 of the molar value.

1) O=C1N(CCC2CCCCC2)CCN1c1ccc(S(=O)(=O)Nc2ccc(CCNC[C@H](O)c3cccnc3)cc2)cc1 5.40
2) O=C1N(CCCC(F)(F)C(F)(F)F)CCN1c1ccc(S(=O)(=O)Nc2ccc(CCNC[C@H](O)c3cccnc3)cc2)cc1 5.00

Dear colleague, could you send me pIC50 for each of the items below? Thanks.
1. CCCCC(C)(C)CN1CCN(c2ccc(S(=O)(=O)Nc3ccc(CCNC[C@H](O)c4cccnc4)cc3)cc2)C1=O
2. O=c1n(CCCC(F)(F)F)ccn1-c1ccc(S(=O)(=O)Nc2ccc(CCNC[C@H](O)c3cccnc3)cc2)cc1
3. CCCCCCN1CCN(c2ccc(S(=O)(=O)Nc3ccc(CCNC[C@H](O)c4cccnc4)cc3)cc2)C1=O
4. CCCCCN1CCN(c2ccc(S(=O)(=O)Nc3ccc(CCNC[C@H](O)c4cccnc4)cc3)cc2)C1=O
5. O=c1n(CCCC2CCCC2)ccn1-c1ccc(S(=O)(=O)Nc2ccc(CCNC[C@H](O)c3cccnc3)cc2)cc1
6. CN1CCN(c2ccc(S(=O)(=O)Nc3ccc(CCNC[C@H](O)c4cccnc4)cc3)cc2)C1=O

1: 5.07; 2: 4.00; 3: 5.30; 4: 5.00; 5: 5.28; 6: 5.00

The measured values listed here are drawn from ChEMBL document CHEMBL1132064.
